system: U87 cells; assay: U87 cell assay (antiproliferative/cytotoxicity); format: cell-based; conditions: U-87MG human glioblastoma cells
QUANTITY NAME: log10 EC50 (log10 of the value in nM)
Recall that a logarithmic scale is used here: each number is log10 of EC50 in nM.

Examples from the recorded data:
Cc1ncc(C#Cc2c(C)ncnc2N2CCCCC2)cc1NS(=O)(=O)c1ccc(F)cc1F [Example I-14] :: 2.79
Cc1ncc(C#Cc2c(C)ncnc2NC(C)C)cc1NS(=O)(=O)c1ccccc1 [Example I-59] :: 3.00
Cc1cc(S(=O)(=O)Nc2cc(C#Cc3c(C)ncnc3N3CCOCC3)cnc2C)c(C)s1 [Example I-48] :: 2.53

**Query** Suppose we examine the molecule Cc1ncc(C#Cc2c(C)ncnc2N2CCOCC2)cc1NS(=O)(=O)c1c(C)noc1C [Example I-53] ; what log10 EC50 value has been reported?
**Result** 3.11

**Query** Item under review: Cc1ncc(C#Cc2c(C)ncnc2N2CCN(C)CC2)cc1NS(=O)(=O)c1ccc(F)cc1F [Example I-18] . Reported log10 EC50?
**Result** 2.55

**Query** Consider the molecule shown here: CCc1ncnc(N2CCN(C)CC2)c1C#Cc1cnc(C)c(NS(=O)(=O)c2ccc(F)cc2)c1 [Example I-65] What is its recorded log10 EC50?
**Result** 2.72

**Query** Consider the molecule CC(=O)N1CCCN(c2ncnc(C)c2C#Cc2cnc(C)c(NS(=O)(=O)c3ccccc3)c2)CC1 [Example I-62] and give its measured log10 EC50.
**Result** 3.11

**Query** Dear colleague, I am looking for the recorded log10 EC50 of the following molecule: COc1ncc(C#Cc2c(C)ncnc2N2CCOCC2)cc1NS(=O)(=O)c1cnn(C)c1 [Example I-88]
**Result** 1.43

###

target: PI3Kalpha (Homo sapiens (Human), UniProt P42336); experiment: Inhibition of PI3Kalpha-induced PIP-2 phosphorylation (filter-binding assay); settings: 33P-ATP, p85alpha/His-p110alpha, read-out: IC50 PI3Kα
Sequence (P42336 whole entry): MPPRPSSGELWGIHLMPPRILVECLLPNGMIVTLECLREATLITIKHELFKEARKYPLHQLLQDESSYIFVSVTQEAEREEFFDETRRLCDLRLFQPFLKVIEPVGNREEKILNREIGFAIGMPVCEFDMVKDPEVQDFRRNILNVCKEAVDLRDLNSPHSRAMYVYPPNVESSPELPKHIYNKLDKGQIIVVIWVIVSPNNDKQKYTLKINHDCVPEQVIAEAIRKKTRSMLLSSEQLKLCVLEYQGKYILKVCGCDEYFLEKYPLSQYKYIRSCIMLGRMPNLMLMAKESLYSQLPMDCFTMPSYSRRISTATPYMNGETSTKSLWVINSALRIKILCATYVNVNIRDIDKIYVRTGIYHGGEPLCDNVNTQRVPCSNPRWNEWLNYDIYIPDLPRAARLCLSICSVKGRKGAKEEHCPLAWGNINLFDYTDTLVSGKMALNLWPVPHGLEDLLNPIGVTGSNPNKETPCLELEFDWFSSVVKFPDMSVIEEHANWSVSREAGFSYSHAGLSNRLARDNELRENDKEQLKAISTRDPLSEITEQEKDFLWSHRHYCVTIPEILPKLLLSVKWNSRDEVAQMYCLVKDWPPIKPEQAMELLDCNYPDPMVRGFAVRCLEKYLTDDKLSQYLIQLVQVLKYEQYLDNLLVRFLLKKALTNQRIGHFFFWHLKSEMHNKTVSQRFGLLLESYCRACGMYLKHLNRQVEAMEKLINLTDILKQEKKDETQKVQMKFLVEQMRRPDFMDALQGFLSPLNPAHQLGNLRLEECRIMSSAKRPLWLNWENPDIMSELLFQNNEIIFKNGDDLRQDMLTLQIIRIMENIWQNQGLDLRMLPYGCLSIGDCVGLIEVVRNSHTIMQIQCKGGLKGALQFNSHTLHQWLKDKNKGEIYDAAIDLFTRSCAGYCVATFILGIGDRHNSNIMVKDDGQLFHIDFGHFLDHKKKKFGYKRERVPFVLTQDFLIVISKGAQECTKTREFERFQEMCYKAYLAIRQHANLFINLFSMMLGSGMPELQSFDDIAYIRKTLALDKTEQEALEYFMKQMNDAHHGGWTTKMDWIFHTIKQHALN
Recorded pIC50 by entry
Lab note — pIC50 values are minus log10 of concentrations in M.

CCc1ncnc(N2CCC(OC)CC2)c1C#Cc1cnc(C)c(NS(C)(=O)=O)c1 :: 8.40
Cc1ncc(C#Cc2c(C)ncnc2N2CCOCC2)cc1NS(=O)(=O)c1cn(C)cn1 :: 9.00
CCc1nc(N)nc(N2CCC(C)(O)CC2)c1C#Cc1cnc(C)c(NS(C)(=O)=O)c1 :: 8.52

**Query** Any idea what its pIC50 is? The compound is COc1ncc(C#Cc2c(C)ncnc2N2CCOCC2)cc1NS(=O)(=O)c1ccc(C)o1
**Result** 9.28

###

system: U87 cells; experiment: U87 cell assay (antiproliferative/cytotoxicity); type: cell-based; settings: U-87MG human glioblastoma cells
The following compounds are shown together with reported log10(EC50) values.
Remember, log10 of EC50, in nM.

COc1ncc(C#Cc2c(C)ncnc2N2CCOCC2)cc1NS(=O)(=O)c1ccc(Cl)cc1 [Example I-84] :: 1.38
COCCS(=O)(=O)Nc1cc(C#Cc2c(C)ncnc2N2CCOCC2)cnc1C [Example I-12] :: 3.11
Cc1ncc(C#Cc2c(C)ncnc2N2CCOCC2)cc1NS(=O)(=O)c1cn(C)cn1 [Example I-9] :: 3.16

**Query** Recorded log10(EC50) for CCc1ncnc(N2CCN(C(C)=O)CC2)c1C#Cc1cnc(C)c(NS(=O)(=O)c2ccc(F)cc2)c1 [Example I-68] , please?
**Result** 2.74

**Query** Name the reported log10(EC50) value associated with the compound Cc1ncc(C#Cc2c(C)ncnc2N2CCOCC2)cc1NS(=O)(=O)c1cccc(F)c1 [Example I-6]
**Result** 2.57

**Query** # log10(EC50) lookup, item COc1ncc(C#Cc2c(C)ncnc2N2CCOCC2)cc1NS(=O)(=O)c1cccs1 [Example I-86]
**Result** 1.62

**Query** Recorded log10(EC50) of CCc1ncnc(N2CCN(C3CC3)CC2)c1C#Cc1cnc(C)c(NS(=O)(=O)c2ccc(F)cc2)c1 [Example I-28] , please.
**Result** 4.16

**Query** Name the recorded log10(EC50) for CCCS(=O)(=O)Nc1cc(C#Cc2c(C)ncnc2N2CCOCC2)cnc1C [Example I-3] .
**Result** 2.72

Cited source: patent US8598157B2
